Quick note: these are MIC numbers for system: Cryptococcus neoformans
The reply should contain only the number, in µg/mL.

Input: # query: MIC of entry CCOC(=O)C(=Cc1ccccc1)C(C)=O
Output: 8

Input: Same thing, different compound: C#CCNc1nc(NCCCC2CCN(Cc3ccccc3)CC2)c(C#N)c(-c2ccccc2)c1C#N
Output: 32

Input: Same thing, different compound: CC(C)(C)OC(=O)n1c(COC(=O)NC2CCN(Cc3ccccc3)CC2)cc2cc(OCc3ccccc3)ccc21.O=C(O)C(=O)O
Output: 16

Input: Same thing, different compound: C#CCN(C)c1nc(NCCCCC2CCN(Cc3ccccc3)CC2)c(C#N)c(-c2ccccc2)c1C#N.Cl
Output: 16

* * *

System: Klebsiella pneumoniae
Test: microbe, parasite or virus in culture
Conditions: ATCC 700603, 18 h, ASSAY_TEST Inhibition of Bacterial Growth, detection method Absorption (OD600), MEDIA CAMHB, plate type 384well, NBS, CORNING #3640
Description: Antibacterial activity against Klebsiella pneumoniae MDR ATCC 70063 (CO-ADD:GN_003); MIC in CAMBH media using NBS plates, by OD(600)
PROPERTY_MEASURED: MIC

Input: # query: MIC of entry CC#CCN(C)Cc1cc2cc(OCc3ccccc3)ccc2[nH]1.O=C(O)C(=O)O
Output: > 32 µg/mL

Input: Same thing, different molecule: C#CCNc1nc(NCCC2CCN(Cc3ccccc3)CC2)c(C#N)c(-c2ccccc2)c1C#N
Output: > 32 µg/mL

Input: Same thing, different molecule: C#CCN(C)Cc1cc2cc(OCCCC3CCN(Cc4ccccc4)CC3)ccc2[nH]1.O=C(O)C(=O)O
Output: > 32 µg/mL

Input: Same thing, different molecule: N#CC1=C(N)Oc2ccc3ccccc3c2C1c1ccc([N+](=O)[O-])cc1 (stereo unspecified)
Output: > 32 µg/mL

Input: Same thing, different molecule: N#C/C(=C\c1ccc([N+](=O)[O-])cc1)C(=O)c1ccccc1
Output: > 32 µg/mL

Input: Same thing, different molecule: CC1=C(C(=O)OC(C)(C)C)C(c2ccccc2)C(C#N)=C(N)O1 (stereo unspecified)
Output: > 32 µg/mL

* * *

Test system: Cryptococcus neoformans
Could you please report measured MIC for the items listed next?

Input: Give the reported MIC for CCOC(=O)c1cc2cc(OCCCC3CCN(Cc4ccccc4)CC3)ccc2[nH]1.Cl (system: Cryptococcus neoformans).
Output: > 32 µg/mL

Input: Same thing, different compound: COc1nc2n[nH]c(N)c2c(-c2ccccc2)c1C#N
Output: > 32 µg/mL

Input: Same thing, different compound: Cc1ccc2nc(Cl)c(C=O)cc2c1
Output: 32 µg/mL

Input: Same thing, different compound: C#CCNc1ccc(Cl)cn1
Output: > 32 µg/mL

Input: Same thing, different compound: N#CC1=C(N)Oc2ccc3ccccc3c2C1c1ccc([N+](=O)[O-])cc1 (stereo unspecified)
Output: > 32 µg/mL

Input: Same thing, different compound: C=C=CCN(C)Cc1cc2cc(OCc3ccccc3)ccc2n1C.O=C(O)C(=O)O
Output: > 32 µg/mL

Input: Same thing, different compound: Cl.Oc1ccc(CCl)c2cccnc12
Output: 1 µg/mL

Input: Same thing, different compound: O=C(CI)NCc1ccccc1
Output: 16 µg/mL

Input: Same thing, different compound: C#CCN(C)Cc1cc2cc(OCCCCC3CCN(Cc4ccccc4)CC3)ccc2n1C.Cl
Output: > 32 µg/mL

Input: Same thing, different compound: CCOC(=O)c1c(C)nc(NCCCCC2CCN(Cc3ccccc3)CC2)c(C#N)c1-c1ccccc1
Output: > 32 µg/mL

Input: Same thing, different compound: N#CC1=C(N)Oc2c(ccc3ccccc23)C1c1ccccc1[N+](=O)[O-] (stereo unspecified)
Output: > 32 µg/mL
